study target: human Nav1.5 (Homo sapiens (Human))
test summary: Human Nav1.5 inhibitory activity evaluation (automated patch clamp QPatch16X, HEK293 cells stably expressing human Nav1.5)
Assay type: cell-based
recorded conditions: human Nav1.5, automated patch clamp
Provide the reported IC50 of each item.

Use these answered entries as a reference point.
> print(dat)
                                   compound                         study.target     result
1  N#Cc1ccc2c(c1)C[C@@H](NC(=O)c1cc3n(n1)CC(CCOCC1CC1)O3)CO2 (single isomer, unassigned) [202 (isomer A)]  human Nav1.5 (Homo sapiens (Human))  ≥ 3000 nM
2  O=C(N[C@H]1COc2ccccc2C1)c1cn2c(n1)COC(c1ccccc1)C2 (stereo partly drawn) [Example 340]  human Nav1.5 (Homo sapiens (Human))  ≥ 3000 nM
3  O=C(N[C@H]1COc2ccc(COCC(F)(F)F)cc2C1)c1cc2n(n1)CC(COCC1CC1)O2 (single isomer, unassigned) [186 (isomer A)]  human Nav1.5 (Homo sapiens (Human))  ≥ 3000 nM

Please supply IC50 for each of the following items, keeping them in order.
1. CN1Cc2nc(C(=O)NCC(F)c3cccc(C(F)(F)F)c3)cn2CC1c1cccc(C(F)(F)F)n1 (stereo not drawn) [Example 333]
2. N#Cc1ccc2c(c1)C[C@@H](NC(=O)c1cc3n(n1)CCC(C#CC(F)(F)F)O3)CO2 (stereo partly drawn) [Example 386]
3. CCC(O)(CC)C1CCn2nc(C(=O)N[C@H]3COc4ccc(Cl)cc4C3)cc2O1 (stereo partly drawn) [Example 168]
4. O=C(N[C@H]1COc2ccc(Cl)cc2C1)c1cc2n(n1)CCN(CC1CCC1(F)F)C2 (stereo partly drawn) [Example 494]
5. O=C(NC1COc2cccc(C(F)F)c2C1)c1cn2c(n1)CCC(C(F)(F)F)C2 (stereo not drawn) [Example 292]

Given back:
≥ 3000 nM
≥ 3000 nM
≥ 3000 nM
1000 to 3000 nM
1000 to 3000 nM

====

study target: human Nav1.5 (Homo sapiens (Human), UniProt Q14524)
Sequence (Q14524 whole entry): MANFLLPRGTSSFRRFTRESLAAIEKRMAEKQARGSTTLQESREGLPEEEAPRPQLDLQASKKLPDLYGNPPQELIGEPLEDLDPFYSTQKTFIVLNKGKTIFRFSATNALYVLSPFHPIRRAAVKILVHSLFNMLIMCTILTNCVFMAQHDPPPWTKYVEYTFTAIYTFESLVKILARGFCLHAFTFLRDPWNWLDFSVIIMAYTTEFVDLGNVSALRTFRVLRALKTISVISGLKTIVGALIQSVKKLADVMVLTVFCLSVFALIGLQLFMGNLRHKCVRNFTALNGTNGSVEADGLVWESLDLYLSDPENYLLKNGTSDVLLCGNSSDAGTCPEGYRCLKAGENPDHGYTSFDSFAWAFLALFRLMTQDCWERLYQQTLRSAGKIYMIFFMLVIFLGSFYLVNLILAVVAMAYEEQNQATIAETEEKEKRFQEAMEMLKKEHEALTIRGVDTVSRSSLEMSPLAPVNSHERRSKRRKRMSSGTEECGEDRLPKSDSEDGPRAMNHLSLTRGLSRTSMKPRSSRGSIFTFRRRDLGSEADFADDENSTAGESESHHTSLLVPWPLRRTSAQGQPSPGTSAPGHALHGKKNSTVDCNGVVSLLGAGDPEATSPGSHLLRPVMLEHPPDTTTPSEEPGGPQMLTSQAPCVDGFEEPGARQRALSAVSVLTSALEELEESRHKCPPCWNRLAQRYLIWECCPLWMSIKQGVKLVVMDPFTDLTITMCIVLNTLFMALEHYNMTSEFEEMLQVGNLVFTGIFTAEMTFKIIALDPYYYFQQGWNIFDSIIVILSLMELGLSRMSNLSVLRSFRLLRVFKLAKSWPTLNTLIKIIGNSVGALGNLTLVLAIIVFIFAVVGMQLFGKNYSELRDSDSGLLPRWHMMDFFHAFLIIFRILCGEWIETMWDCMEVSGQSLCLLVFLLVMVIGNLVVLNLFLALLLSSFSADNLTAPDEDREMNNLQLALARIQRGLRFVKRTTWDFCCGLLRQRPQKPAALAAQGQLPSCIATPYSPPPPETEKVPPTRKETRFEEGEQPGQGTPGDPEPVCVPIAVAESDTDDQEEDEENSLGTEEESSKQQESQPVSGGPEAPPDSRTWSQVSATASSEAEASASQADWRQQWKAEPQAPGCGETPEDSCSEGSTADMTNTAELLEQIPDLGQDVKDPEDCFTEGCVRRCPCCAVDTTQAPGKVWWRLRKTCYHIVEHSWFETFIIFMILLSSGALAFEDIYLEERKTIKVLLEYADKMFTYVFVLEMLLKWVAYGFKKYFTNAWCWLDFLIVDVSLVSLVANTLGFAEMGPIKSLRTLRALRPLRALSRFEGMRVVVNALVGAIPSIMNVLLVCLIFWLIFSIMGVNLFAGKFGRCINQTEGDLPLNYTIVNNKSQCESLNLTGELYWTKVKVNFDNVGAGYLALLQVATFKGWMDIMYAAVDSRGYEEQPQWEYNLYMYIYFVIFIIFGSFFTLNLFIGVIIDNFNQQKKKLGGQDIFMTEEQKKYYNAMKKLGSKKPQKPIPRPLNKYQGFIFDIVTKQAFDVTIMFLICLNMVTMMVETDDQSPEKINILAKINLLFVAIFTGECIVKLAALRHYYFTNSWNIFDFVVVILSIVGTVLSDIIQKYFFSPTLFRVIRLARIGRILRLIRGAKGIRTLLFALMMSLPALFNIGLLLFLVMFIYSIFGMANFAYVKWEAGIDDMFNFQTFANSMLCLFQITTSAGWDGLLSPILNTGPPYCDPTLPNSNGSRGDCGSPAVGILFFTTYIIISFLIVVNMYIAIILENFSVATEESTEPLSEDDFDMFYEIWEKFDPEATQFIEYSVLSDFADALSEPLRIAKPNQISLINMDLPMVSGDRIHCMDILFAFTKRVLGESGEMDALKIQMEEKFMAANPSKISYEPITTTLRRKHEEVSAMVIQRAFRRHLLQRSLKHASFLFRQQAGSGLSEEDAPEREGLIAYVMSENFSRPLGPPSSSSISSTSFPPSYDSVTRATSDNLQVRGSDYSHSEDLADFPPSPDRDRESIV
test summary: Human Nav1.5 inhibitory activity evaluation (automated patch clamp QPatch16X, HEK293 cells stably expressing human Nav1.5)
Type: cell-based
recorded conditions: human Nav1.5, automated patch clamp
pIC50: −log10 of the molar value.
Provide the reported pIC50 of each item.

Use these answered entries as a reference point.
> print(dat)
                                   molecule        result
1  COc1ncc(-c2ccc3c(c2)C[C@@H](NC(=O)c2cc4n(n2)CC(CCOCC2CC2)O4)CO3)cn1 (single isomer, unassigned) [204 (isomer A)]        ≤ 5.52
2  CC(C)(C)CCC1Cn2cc(C(=O)N[C@H]3COc4ccccc4C3)nc2CN1 (stereo partly drawn)  5.52 to 6.00
3  N#Cc1ccc2c(c1)C[C@@H](NC(=O)c1cc3n(n1)CC(CCSCC(F)(F)F)O3)CO2 (stereo partly drawn) [Example 243]        ≤ 5.52
4  Cc1cnc(-c2ccc3c(c2)C[C@@H](NC(=O)c2cc4n(n2)CC(COCC(F)(F)F)O4)CO3)cn1 (single isomer, unassigned) [194 (isomer B)]        ≤ 5.52
5  O=C(N[C@H]1COc2ccc(COCC(F)(F)F)cc2C1)c1cc2n(n1)CC(COCC(F)(F)F)O2 (single isomer, unassigned) [188 (isomer B)]        ≤ 5.52

// next item, pIC50 requested
Asked: What value of pIC50 has been recorded for this entry: O=C(N[C@H]1COc2ccc(COCC(F)(F)F)cc2C1)c1cc2n(n1)CCC(C(F)F)O2 (single isomer, unassigned) [163 (isomer A)]
Given back: 5.52 to 6.00

====

study target: human Nav1.7 (Homo sapiens (Human))
test summary: Human Nav1.7 inhibitory activity evaluation (automated patch clamp QPatch16X, HEK293A cells stably expressing human Nav1.7 and human Navβ1)
Type: cell-based
recorded conditions: human Nav1.7, automated patch clamp
pIC50: −log10 of the molar value.
result type: pIC50

> print(dat)
                                   compound                         study.target  result
1  O=C(N[C@H]1COc2ccc(C(F)(F)F)cc2C1)c1nn2c(c1-c1ccccn1)CN(CC(F)(F)F)CC2  human Nav1.7 (Homo sapiens (Human))  > 5.00

Please supply pIC50 for each of the following items, keeping them in order.
1. N#Cc1ccc2c(c1)C[C@@H](NC(=O)c1cc3n(n1)CCC(COCC1(F)CC1)O3)CO2 (single isomer, unassigned) [552 (isomer A)]
2. N#Cc1ccc2c(c1)C[C@@H](NC(=O)c1cc3n(n1)CC(CCOC(F)(F)F)O3)CO2 (single isomer, unassigned) [209 (isomer B)]
3. O=C(N[C@H]1COc2ccc(C(F)(F)F)cc2C1)c1cc2n(n1)CCN(CCOC1CCC1)C2

Given back:
1. > 5.00
2. > 6.00
3. > 6.00

====

study target: human Nav1.7 (Homo sapiens (Human), UniProt Q15858)
Sequence (Q15858 whole entry): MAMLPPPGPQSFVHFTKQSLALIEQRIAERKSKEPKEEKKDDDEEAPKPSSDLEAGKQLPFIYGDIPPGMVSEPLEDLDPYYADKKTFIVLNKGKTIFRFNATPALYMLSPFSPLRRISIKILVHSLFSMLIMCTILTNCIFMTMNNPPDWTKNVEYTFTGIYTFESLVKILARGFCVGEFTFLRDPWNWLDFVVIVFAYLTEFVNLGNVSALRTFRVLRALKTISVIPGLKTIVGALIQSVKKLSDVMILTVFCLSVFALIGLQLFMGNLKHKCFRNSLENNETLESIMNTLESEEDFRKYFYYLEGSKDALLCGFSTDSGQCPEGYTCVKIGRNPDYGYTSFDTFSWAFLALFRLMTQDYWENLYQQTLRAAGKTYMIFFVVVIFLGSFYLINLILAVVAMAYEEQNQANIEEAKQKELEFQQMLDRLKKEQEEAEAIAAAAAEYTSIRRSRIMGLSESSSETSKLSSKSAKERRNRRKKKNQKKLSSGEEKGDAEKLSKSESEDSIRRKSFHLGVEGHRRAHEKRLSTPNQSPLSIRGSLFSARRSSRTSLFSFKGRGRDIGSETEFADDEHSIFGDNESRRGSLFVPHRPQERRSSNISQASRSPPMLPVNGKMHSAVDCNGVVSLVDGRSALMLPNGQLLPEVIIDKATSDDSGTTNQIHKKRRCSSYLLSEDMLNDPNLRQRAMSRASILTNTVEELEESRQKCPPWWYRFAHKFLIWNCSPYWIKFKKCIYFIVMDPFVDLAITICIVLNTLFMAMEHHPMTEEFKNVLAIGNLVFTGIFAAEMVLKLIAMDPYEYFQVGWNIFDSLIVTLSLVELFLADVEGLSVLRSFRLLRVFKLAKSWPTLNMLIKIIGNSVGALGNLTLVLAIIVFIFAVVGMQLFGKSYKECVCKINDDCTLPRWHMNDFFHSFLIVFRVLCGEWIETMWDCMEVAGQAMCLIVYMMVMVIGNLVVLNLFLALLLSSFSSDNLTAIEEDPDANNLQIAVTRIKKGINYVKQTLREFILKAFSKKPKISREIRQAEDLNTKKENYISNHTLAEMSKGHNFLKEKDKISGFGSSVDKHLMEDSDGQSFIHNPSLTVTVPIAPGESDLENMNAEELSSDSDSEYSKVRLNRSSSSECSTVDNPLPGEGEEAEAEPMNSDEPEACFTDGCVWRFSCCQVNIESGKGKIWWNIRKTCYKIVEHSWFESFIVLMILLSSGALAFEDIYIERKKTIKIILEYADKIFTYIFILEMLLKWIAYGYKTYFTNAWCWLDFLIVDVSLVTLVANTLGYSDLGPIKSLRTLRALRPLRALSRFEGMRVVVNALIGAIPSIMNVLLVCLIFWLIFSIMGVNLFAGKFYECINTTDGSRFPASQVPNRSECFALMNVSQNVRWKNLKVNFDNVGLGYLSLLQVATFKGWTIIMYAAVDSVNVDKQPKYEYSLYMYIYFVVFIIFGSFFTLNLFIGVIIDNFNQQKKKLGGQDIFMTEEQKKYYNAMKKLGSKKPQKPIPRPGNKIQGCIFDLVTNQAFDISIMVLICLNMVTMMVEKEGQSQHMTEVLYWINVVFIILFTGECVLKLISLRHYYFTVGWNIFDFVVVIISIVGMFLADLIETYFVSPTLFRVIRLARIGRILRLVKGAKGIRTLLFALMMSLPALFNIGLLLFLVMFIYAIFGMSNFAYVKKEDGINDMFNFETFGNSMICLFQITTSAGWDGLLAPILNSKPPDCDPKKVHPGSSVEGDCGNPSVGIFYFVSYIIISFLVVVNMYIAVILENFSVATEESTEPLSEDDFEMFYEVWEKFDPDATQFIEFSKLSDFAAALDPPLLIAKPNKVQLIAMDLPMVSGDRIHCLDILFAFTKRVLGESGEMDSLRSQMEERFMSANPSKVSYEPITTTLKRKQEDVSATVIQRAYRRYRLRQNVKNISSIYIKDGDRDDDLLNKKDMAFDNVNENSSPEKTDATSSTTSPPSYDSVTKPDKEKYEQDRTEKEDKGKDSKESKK
Sequence (Q07699 19-218 partner): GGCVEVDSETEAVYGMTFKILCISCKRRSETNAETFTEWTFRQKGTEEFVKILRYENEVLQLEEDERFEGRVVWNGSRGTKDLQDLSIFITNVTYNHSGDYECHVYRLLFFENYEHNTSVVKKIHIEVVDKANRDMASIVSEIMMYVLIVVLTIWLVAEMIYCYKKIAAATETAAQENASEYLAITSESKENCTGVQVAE
test summary: Human Nav1.7 inhibitory activity evaluation (automated patch clamp QPatch16X, HEK293A cells stably expressing human Nav1.7 and human Navβ1)
Assay type: cell-based
recorded conditions: HEK293A cells stably expressing human Nav1.7 and human Navβ1, automated patch clamp QPatch16X
result type: IC50

> print(dat)
                                   compound                              study.target      result
1  O=C(N[C@H]1COc2ccccc2C1)c1cn2c(n1)CNC(c1cccc(C(F)(F)F)n1)C2 (stereo partly shown)  human Nav1.7 (Homo sapiens (Human), UniProt Q15858)  < 10000 nM
2  N#Cc1ccc2c(c1)C[C@@H](NC(=O)c1cc3n(n1)CCC(CC1CC1)O3)CO2 (stereo partly shown) [Example 96]  human Nav1.7 (Homo sapiens (Human), UniProt Q15858)   < 1000 nM
3  O=C(NCCc1cccc(C(F)(F)F)c1)c1cn2c(n1)CNC(c1ccccc1)C2 (stereo not shown)  human Nav1.7 (Homo sapiens (Human), UniProt Q15858)  < 10000 nM

Please supply IC50 for each of the following items, keeping them in order.
1. O=C(N[C@H]1COc2ccccc2C1)c1nc2n(c1-c1ccccc1)CCCC2
2. CC1CCn2nc(C(=O)N[C@H]3COc4ccc(Cl)cc4C3)cc2O1 (stereo partly shown)

Given back:
["< 1000 nM", "< 1000 nM"]

====

study target: UniProt Q15858
test summary: Human Nav1.7 inhibitory activity evaluation (automated patch clamp QPatch16X, HEK293A cells stably expressing human Nav1.7 and human Navβ1)
Format: cell-based
recorded conditions: human Nav1.7, automated patch clamp
Provide the reported IC50 of each item.

Use these answered entries as a reference point.
> print(dat)
                                   compound    study.target   result
1  O=C(N[C@H]1COc2ccc(COCC(F)(F)F)cc2C1)c1cc2n(n1)CC(C(F)(F)F)O2 (single isomer, unassigned) [184 (isomer B)]  UniProt Q15858  < 10 µM
2  O=C(N[C@H]1COc2ccc(Cl)cc2C1)c1cc2n(n1)CCC(C(F)(F)F)O2 (stereo partly shown) [Example 169]  UniProt Q15858   < 1 µM
3  CC(C)(c1ccccn1)N1CCn2nc(C(=O)N[C@H]3COc4ccc(C#N)cc4C3)cc2C1  UniProt Q15858  < 10 µM

// next item, IC50 requested
Asked: What value of IC50 has been recorded for this entry: O=C(N[C@H]1COc2ccccc2C1)c1cc2n(n1)CC(c1ccccc1)O2 (stereo partly shown)
Given back: < 1 µM

====

Provide the reported IC50 of each item.
study target: human Nav1.7 (Homo sapiens (Human), UniProt Q15858)
test summary: Human Nav1.7 inhibitory activity evaluation (automated patch clamp QPatch16X, HEK293A cells stably expressing human Nav1.7 and human Navβ1)
Type: cell-based
recorded conditions: human Nav1.7, automated patch clamp

> print(dat)
                                   molecule  result.type  result
1  COC1c2cc(C(F)(F)F)ccc2OC[C@@H]1NC(=O)c1cc2n(n1)CCC(C(F)F)O2 (stereo partly shown) [Example 568]         IC50  < 1 µM

Please supply IC50 for each of the following items, keeping them in order.
1. CCC1(O)c2cc(C(F)(F)F)ccc2OC[C@@H]1NC(=O)c1cc2n(n1)CCC(C(F)F)O2 (stereo partly shown) [Example 544]
2. CCc1cccc(-c2c(C(=O)N[C@H]3COc4ccc(C#N)cc4C3)nn3c2COCC3)n1 [Example 516]
3. N#CC1(COCC2CCn3nc(C(=O)N[C@H]4COc5ccc(Cl)cc5C4)cc3O2)CC1 (single isomer, unassigned) [563 (isomer B)]
4. N#CCc1cccc2c1CC(NC(=O)c1cn3c(n1)CCC(C(F)(F)F)C3)CO2 (stereo not shown) [Example 297]
5. O=C(N[C@H]1COc2ccc(C(F)(F)F)cc2C1)c1cc2n(n1)CCC(CCOC(F)F)O2 (stereo partly shown) [Example 433]
6. O=C(N[C@H]1COc2ccc(C(F)(F)F)cc2C1F)c1cc2n(n1)CCN(CC1CCOCC1)C2 (stereo partly shown) [Example 642]

Given back:
1: < 10 µM; 2: < 10 µM; 3: < 1 µM; 4: < 10 µM; 5: < 1 µM; 6: < 10 µM
